# Test system: dRBD #3L (LwaCas13a with hnRNP A1 RRM2 98-196 inserted between N415 and N416, catalytically inactive HEPN2) R1046A/H1051A (LwaCas13a numbering) (Leptotrichia wadei / Homo sapiens)
# test_method_notes: EMSA
# setup_conditions: collateral reporter binding by cr1/T1-bound complex; pH 7.5, 5 mM MgCl2, 0.01% Triton X-100
metric: Kd (nM)
One number for each entry, in nM.

Recorded result, UUUUUUUUUUUUUUUUUUUU [U20 reporter] , Kd: 230

====

# Tested on: dRBD #4L (LwaCas13a with hnRNP C RRM 2-106 inserted between N415 and N416, catalytically inactive HEPN2) R1046A/H1051A (LwaCas13a numbering) (Leptotrichia wadei / Homo sapiens)
# test_method_notes: EMSA
# setup_conditions: collateral reporter binding by cr1/T1-bound complex; pH 7.5, 5 mM MgCl2, 0.01% Triton X-100
metric: pKd
Give bare numbers, as −log10 of the molar value.

Recorded result, UUUUUUUUUUUUUUUUUUUU [U20 reporter] , pKd: 6.82

====

# System: dRBD #4L (LwaCas13a with hnRNP C RRM 2-106 inserted between N415 and N416, catalytically inactive HEPN2) R1046A/H1051A (LwaCas13a numbering) (Leptotrichia wadei / Homo sapiens)
# test_method_notes: EMSA
# setup_conditions: crRNA complex; 50 mM Tris pH 8.0, 60 mM NaCl, 5 mM MgCl2, 37 C
metric: pKd
Numbers only, as −log10 of the molar value.

Recorded result, GACUACCCCAAAAACGAAGGGGACUAAAACAAUCUGAGGGUCCACCAAACGUAAUGCG / ACCCCGCAUUACGUUUGGUGGACCCUCAGAUUCAAC [cr1_N crRNA ; T26_N_2 target (36 nt)] , pKd: 7.74
